Measured pKd, listed per entry for reference.
- target-system: human ROR2 (human, UniProt Q01974 34-403, limits assumed)
- Sequence (Q01974 34-403 limits assumed): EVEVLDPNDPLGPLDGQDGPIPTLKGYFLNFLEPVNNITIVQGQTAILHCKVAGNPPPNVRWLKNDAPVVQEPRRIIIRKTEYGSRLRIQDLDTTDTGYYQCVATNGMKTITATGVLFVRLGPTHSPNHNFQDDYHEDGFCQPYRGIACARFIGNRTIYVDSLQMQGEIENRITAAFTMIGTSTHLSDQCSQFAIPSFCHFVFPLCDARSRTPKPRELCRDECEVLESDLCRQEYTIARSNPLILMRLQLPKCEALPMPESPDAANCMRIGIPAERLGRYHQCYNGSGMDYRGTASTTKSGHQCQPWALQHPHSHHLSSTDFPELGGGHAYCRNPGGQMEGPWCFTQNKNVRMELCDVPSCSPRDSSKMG
- assay-procedure: SPR
Expect pKd as a plain number equal to -log10 of the molar concentration.

Give the measured pKd of h6E6-077 (antibody, human IgG1, V domains shown, human IgG1; also called clone 77) VH: EVQLVESGGGLVKPGGSLRLSCAASGFTFSHYGTSWVRQAPGKGLEWVSTISSGGGYTHYAPSVKGRFTISRDNAKNSLYLQMNSLRAEDTAVYYCARHPRDFSYAIDYWGQGTTVTVSS VL: EIVMTQSPATLSVSPGERATLSCKASQDVGHYVAWYQQKPGQAPRLLIYWASTRATGIPARFSGSGSGTEFTLTISSLQSEDFAVYYCQQYNIYPWTFGQGTKVEIK .
9.81

Give the measured pKd of h6E6-022 (antibody, V domains shown, also called clone 22) VH: EVQLVESGGGLVKPGGSLRLSCAASGFTFSKYGTSWVRQAPGKGLEWVSTISSGGGYTHYAPSVKGRFTISRDNAKNSLYLQMNSLRAEDTAVYYCARHPRDFSYAMDYWGQGTTVTVSS VL: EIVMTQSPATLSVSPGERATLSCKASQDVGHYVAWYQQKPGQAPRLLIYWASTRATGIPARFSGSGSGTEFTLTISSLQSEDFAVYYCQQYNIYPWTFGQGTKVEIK .
9.57

Continue with the binder presented below.
Give the measured pKd of h6E6-082 (antibody, V domains shown, also called clone 82) VH: EVQLVESGGGLVKPGGSLRLSCAASGFTFSKYGMSWVRQAPGKGLEWVSTISSGGGYTHYADSVKGRFTISRDNAKNSLYLQMNSLRAEDTAVYYCARHPRDFSYAMDYWGQGTTVTVSS VL: EIVMTQSPATLSVSPGERATLSCKASQDVGHYLAWYQQKPGQAPRLLIYWASTRHTGIPARFSGSGSGTEFTLTISSLQSEDFAVYYCQQYNIYPWTFGQGTKVEIK .
9.09
